system: P12-Ichikawa; assay: cell viability relative to DMSO control; higher = less cytotoxic; conditions: RPMI 5 mM glucose + 10% dialyzed FBS; 48 h; 15.4 µM
PROPERTY NAME: cell viability (%)
State the answer as a number, implicitly in %.

// worked examples, cell viability included
| LINE NOTATION | cell viability / % |
| --- | --- |
| O=C(N[C@H]1CN2CCC1CC2)c1ccc(Cl)cc1 | 104 |
| Cc1n[nH]c(C)c1Cc1sc2c(c1C(=O)N1C[C@H](O)CO1)c(=O)n(C)c(=O)n2CC(C)C | 88.5 |
| COc1ccc(-c2cc3c(C)nc(N)nc3n([C@H]3CC[C@H](OCCO)CC3)c2=O)cn1 | 38.7 |
| CC(C)C[C@@H](C(=O)N[C@H](C(=O)OC1CCCC1)c1ccccc1)[C@H](O)C(=O)NO | 89.6 |
| O=C1N\N=C(\C[C@@H]2CCN(C2)C(=O)C3CC3)N1C4=CC=C(C=C4)C5=CC=C6OC=CC6=C5 | 86.3 |

Query compound follows.
Prompt: Respond only with cell viability recorded for CC(=O)OCC(CCn1cnc2cnc(N)nc21)COC(C)=O
Response: 103

* * *

system: SEM cells; assay: cell viability relative to DMSO control; higher = less cytotoxic; details: RPMI 5 mM glucose + 10% FBS; 48 h; 5.12 µM
PROPERTY NAME: cell viability (%)
State the answer as a number, implicitly in %.

| MOLECULE | TARGET OR SYSTEM | UNITS SYMBOL | cell viability |
| --- | --- | --- | --- |
| CN1C(=O)C(=C/2N(C(=O)N(C3CC3)C(=O)C2=C1/NC4=CC=C(I)C=C4F)C5=CC=CC(=C5)NC(C)=O)\C | SEM cells | % | 7.99 |
| O=C1C(CCC(O)c2ccc(F)cc2)C(c2ccc(O)cc2)N1c1ccc(F)cc1 (stereo not drawn) | SEM cells | % | 114 |

Query molecule follows.
Prompt: Lab note: record cell viability of COc1cc([C@@H]2c3cc4c(cc3[C@H](O)[C@H]3COC(=O)[C@H]23)OCO4)cc(OC)c1OC tested on SEM cells.
Response: 4.97

* * *

system: NOMO1; test: cell viability relative to DMSO control; higher = less cytotoxic; details: RPMI 5 mM glucose + 10% FBS; 48 h; 0.00234 µM
The following molecules are shown together with reported cell viability values.
State the answer as a number, implicitly in %.

| MOLECULE | TARGET OR SYSTEM | cell viability, % |
| --- | --- | --- |
| CC(C)C[C@@H](C(=O)N[C@H](C(=O)OC1CCCC1)c1ccccc1)[C@H](O)C(=O)NO | NOMO1 | 102 |
| COC1=C(CC=C(C)C)C2=C(\C=C/C(=O)O2)C=C1 | NOMO1 | 117 |
| Cc1nc(C(=O)NCC(=O)O)c(O)c2ccc(Oc3ccccc3)cc12 | NOMO1 | 105 |
| C[C@]12CCC(=O)C(O)=C1CC[C@@H]1[C@@H]2CC[C@]2(C)C(=O)CC[C@@H]12 | NOMO1 | 114 |
| COc1cc([S+](C)(=O)[O-])ccc1Nc1nc2ccc(-c3ccc(NC(=O)[C@H](C)c4ccc(F)cc4)cc3)cn2n1 | NOMO1 | 129 |
| COc1cc([C@@H]2c3cc4c(cc3[C@@H](O)C3COC(=O)C32)OCO4)cc(OC)c1O (some centres undefined) | NOMO1 | 95.6 |

Prompt: Respond only with cell viability recorded for Clc1ccc(C(Cn2ccnc2)OCc2ccc(Sc3ccccc3)cc2)c(Cl)c1 (centres undefined)
Response: 108

Prompt: Respond only with cell viability recorded for N#C[C@@H]1C[C@@H]2C[C@@H]2N1C(=O)[C@@H](N)C12CC3CC(CC(O)(C3)C1)C2
Response: 109

Prompt: Respond only with cell viability recorded for O=C(Nc1ccncc1)C(=O)c1cn(Cc2ccc(Cl)cc2)c2ccccc12
Response: 98.1

* * *

tested on: P12-Ichikawa; assay: cell viability relative to DMSO control; higher = less cytotoxic; conditions: RPMI 5 mM glucose + 10% FBS; 48 h; 0.00234 µM
Mark label 1 for cell viability under 90%, label 0 if at or over.

| LINE NOTATION | QUALITATIVE LABEL |
| --- | --- |
| N[S+](=O)([O-])c1cc2c(cc1Cl)NCN[S+]2(=O)[O-] | label 0 |
| CCC[S+](=O)([O-])Nc1ccc(F)c(C(=O)c2c[nH]c3ncc(-c4ccc(Cl)cc4)cc23)c1F | label 0 |
| COc1cc([C@@H]2c3cc4c(cc3[C@H](O)[C@H]3COC(=O)[C@H]23)OCO4)cc(OC)c1OC | label 1 |

--- query ---
Prompt: Just wondering, is cell viability of Cc1ccnc(N[S+](=O)([O-])c2ccc(NC(=O)Nc3ccc([S+](=O)([O-])Nc4nccc(C)n4)cc3)cc2)n1 below 90%?
Response: label 1

* * *

tested on: NOMO1; test: cell viability relative to DMSO control; higher = less cytotoxic; conditions: HPLM + 10% dialyzed FBS; 48 h; 0.569 µM
The following compounds are shown together with reported cell viability values.
State the answer as a number, implicitly in %.

| COMPOUND | REPORTED |
| --- | --- |
| COc1cc([C@@H]2c3cc4c(cc3[C@@H](O)C3COC(=O)C32)OCO4)cc(OC)c1O (some centres undefined) | 37.9 |

Prompt: Respond only with cell viability recorded for CN1C(=O)\C(=C/C2=C1N=C(NC3CCOCC3)N=C2)OC4=C(F)C=C(F)C=C4
Response: 91

Prompt: Respond only with cell viability recorded for CN(C)c1ccccc1CN1CCCN(Cc2ccccc2N(C)C)C1c1ccncc1
Response: 108

Prompt: Respond only with cell viability recorded for Cc1ccc(Nc2nccc(N(C)c3ccc4c(C)n(C)nc4c3)n2)cc1[S+](N)(=O)[O-]
Response: 126

* * *

test system: NOMO1; assay: cell viability relative to DMSO control; higher = less cytotoxic; conditions: RPMI 5 mM glucose + 10% FBS; 48 h; 0.19 µM
PROPERTY NAME: cell viability (%)
State the answer as a number, implicitly in %.

// worked examples, cell viability included
| LINE NOTATION | REPORTED |
| --- | --- |
| O=C1CCc2cc(OCCCCc3nnnn3C3CCCCC3)ccc2N1 | 98.4 |
| CC(=O)[C@H]1CC[C@H]2[C@@H]3C/C=C4/C[C@@H](O)CC[C@]4(C)[C@H]3CC[C@]12C | 117 |
| CNC(=O)c1cc(Oc2ccc(NC(=O)Nc3ccc(Cl)c(C(F)(F)F)c3)c(F)c2)ccn1 | 94.3 |
| CON(C)C(=O)N1\N=C(/S[C@]1(CCCN)C2=CC=CC=C2)C3=CC(=CC=C3F)F | 20 |

Prompt: Respond only with cell viability recorded for NC(=O)c1c(OCc2c(F)cc(Br)cc2F)nsc1NC(=O)NCCCCN1CCCC1
Response: 105

* * *

test system: SEM cells; experiment: cell viability relative to DMSO control; higher = less cytotoxic; settings: RPMI 5 mM glucose + 10% FBS; 48 h; 0.0211 µM
The following compounds are shown together with reported cell viability values.
State the answer as a number, implicitly in %.

| LINE NOTATION | cell viability / % |
| --- | --- |
| CNCCN(C)Cc1c[nH]nc1-c1ccc(O[C@H]2C[C@H](OCCC3CCOCC3)C2)cc1 | 117 |
| CC(=O)O[C@@]12CO[C@@H]1C[C@H](O)[C@]3(C)[C@@H]2[C@H](OC(=O)C4=CC=CC=C4)[C@]5(O)C[C@H](O)/C(=C(/[C@@H](O)C3=O)C5(C)C)C | 71 |
| CC[C@@H](C)[C@H](NC(=O)[C@H](CC1CCCCC1)NC(=O)c1ccno1)C(=O)N1CCC2(CCc3ccccc32)CC1 | 89.2 |

Prompt: Respond only with cell viability recorded for COc1cc([C@@H]2c3cc4c(cc3[C@H](O)[C@H]3COC(=O)[C@H]23)OCO4)cc(OC)c1OC
Response: 18.2

Prompt: Respond only with cell viability recorded for COC1=C(CC=C(C)C)C2=C(\C=C/C(=O)O2)C=C1
Response: 117

* * *

The following compounds are shown together with reported cell viability values.
system: NOMO1; assay: cell viability relative to DMSO control; higher = less cytotoxic; settings: RPMI 5 mM glucose + 10% FBS; 48 h; 0.00702 µM
State the answer as a number, implicitly in %.

// worked examples, cell viability included
| COMPOUND | cell viability [%] |
| --- | --- |
| OCCN1CCN(CCCN2c3ccccc3Sc3ccc(C(F)(F)F)cc32)CC1 | 100 |
| Clc1ccc(C(Cn2ccnc2)OCc2ccc(Sc3ccccc3)cc2)c(Cl)c1 (stereo not drawn) | 106 |
| O=C(O)CCc1ccc(NCc2cccc(Oc3ccccc3)c2)cc1 | 108 |
| O=C(O)CCCc1ccc(N(CCCl)CCCl)cc1 | 134 |
| COc1ccc(CC2SC(=O)NC2=O)cc1C(=O)NCc1ccc(C(F)(F)F)cc1 (stereo not drawn) | 94 |
| CNC(=O)c1cc(Oc2ccc(NC(=O)Nc3ccc(Cl)c(C(F)(F)F)c3)c(F)c2)ccn1 | 94.8 |
| Cc1n[nH]c2ccc(-c3cncc(OC[C@@H](N)Cc4c[nH]c5ccccc45)c3)cc12 | 116 |
| CNC(=O)c1cc(COc2nnc(Nc3ccc(Cl)cc3)c3ccoc23)ccn1 | 106 |

Prompt: Lab note: record cell viability of CC(=O)OCC(CCn1cnc2cnc(N)nc21)COC(C)=O tested on NOMO1.
Response: 92.8

Prompt: Lab note: record cell viability of Cc1cccc(Nc2nc(N[C@@H]3CCCC[C@@H]3N)ncc2C(N)=O)c1 tested on NOMO1.
Response: 114

Prompt: Lab note: record cell viability of CCCCC(F)(F)[C@@]1(O)CC[C@H]2[C@@H](CC(=O)[C@@H]2CCCCCCC(=O)O)O1 tested on NOMO1.
Response: 126

Prompt: Lab note: record cell viability of C[C@@H](Oc1ccc2[nH]nc(/C=C/c3cnn(CCO)c3)c2c1)c1c(Cl)cncc1Cl tested on NOMO1.
Response: 89.2

Prompt: Lab note: record cell viability of CN(C)c1ccccc1CN1CCCN(Cc2ccccc2N(C)C)C1c1ccncc1 tested on NOMO1.
Response: 89.2

Prompt: Lab note: record cell viability of CC[C@@H](C)[C@H](NC(=O)[C@H](CC1CCCCC1)NC(=O)c1ccno1)C(=O)N1CCC2(CCc3ccccc32)CC1 tested on NOMO1.
Response: 81.1

Prompt: Lab note: record cell viability of Cc1ccnc(N[S+](=O)([O-])c2ccc(NC(=O)Nc3ccc([S+](=O)([O-])Nc4nccc(C)n4)cc3)cc2)n1 tested on NOMO1.
Response: 83.5

Prompt: Lab note: record cell viability of COc1cc([C@@H]2c3cc4c(cc3[C@@H](O)C3COC(=O)C32)OCO4)cc(OC)c1O (stereo partly drawn) tested on NOMO1.
Response: 85.7

Prompt: Lab note: record cell viability of CC[P](CC)(CC)=[Au][S][C@@H]1O[C@H](COC(C)=O)[C@@H](OC(C)=O)[C@H](OC(C)=O)[C@H]1OC(C)=O tested on NOMO1.
Response: 105

Prompt: Lab note: record cell viability of O=C(Nc1cccc2c(=O)cc(-c3nnn[nH]3)oc12)c1ccc(OCCCCc2ccccc2)cc1 tested on NOMO1.
Response: 85.2

Where do the numbers come from? From the supplement of paper PMC11451515.
